Listed compounds paired with reported bioavailability
Test: In vivo pharmacokinetics study in mice
Settings: male, ICR, mouse, plasma, po, iv 3 mg/kg, intragastric 10 mg/kg, read-out: Absolute bioavailability F
reported endpoint: bioavailability (%)

1. Cc1cc(Nc2ncnc3ccc(NC4=NC(C)(C)CO4)cc23)ccc1Oc1ccn2ncnc2c1 [ARRY-380, reference compound]	61
2. Cc1cc(Nc2ncnc3ccc(NC4=NC(C)(C)CO4)cc23)ccc1Oc1cc2nncn2cn1	96.2

----------
Molecular target: EGFR kinase (Homo sapiens)
Sequence (P00533 25-1210): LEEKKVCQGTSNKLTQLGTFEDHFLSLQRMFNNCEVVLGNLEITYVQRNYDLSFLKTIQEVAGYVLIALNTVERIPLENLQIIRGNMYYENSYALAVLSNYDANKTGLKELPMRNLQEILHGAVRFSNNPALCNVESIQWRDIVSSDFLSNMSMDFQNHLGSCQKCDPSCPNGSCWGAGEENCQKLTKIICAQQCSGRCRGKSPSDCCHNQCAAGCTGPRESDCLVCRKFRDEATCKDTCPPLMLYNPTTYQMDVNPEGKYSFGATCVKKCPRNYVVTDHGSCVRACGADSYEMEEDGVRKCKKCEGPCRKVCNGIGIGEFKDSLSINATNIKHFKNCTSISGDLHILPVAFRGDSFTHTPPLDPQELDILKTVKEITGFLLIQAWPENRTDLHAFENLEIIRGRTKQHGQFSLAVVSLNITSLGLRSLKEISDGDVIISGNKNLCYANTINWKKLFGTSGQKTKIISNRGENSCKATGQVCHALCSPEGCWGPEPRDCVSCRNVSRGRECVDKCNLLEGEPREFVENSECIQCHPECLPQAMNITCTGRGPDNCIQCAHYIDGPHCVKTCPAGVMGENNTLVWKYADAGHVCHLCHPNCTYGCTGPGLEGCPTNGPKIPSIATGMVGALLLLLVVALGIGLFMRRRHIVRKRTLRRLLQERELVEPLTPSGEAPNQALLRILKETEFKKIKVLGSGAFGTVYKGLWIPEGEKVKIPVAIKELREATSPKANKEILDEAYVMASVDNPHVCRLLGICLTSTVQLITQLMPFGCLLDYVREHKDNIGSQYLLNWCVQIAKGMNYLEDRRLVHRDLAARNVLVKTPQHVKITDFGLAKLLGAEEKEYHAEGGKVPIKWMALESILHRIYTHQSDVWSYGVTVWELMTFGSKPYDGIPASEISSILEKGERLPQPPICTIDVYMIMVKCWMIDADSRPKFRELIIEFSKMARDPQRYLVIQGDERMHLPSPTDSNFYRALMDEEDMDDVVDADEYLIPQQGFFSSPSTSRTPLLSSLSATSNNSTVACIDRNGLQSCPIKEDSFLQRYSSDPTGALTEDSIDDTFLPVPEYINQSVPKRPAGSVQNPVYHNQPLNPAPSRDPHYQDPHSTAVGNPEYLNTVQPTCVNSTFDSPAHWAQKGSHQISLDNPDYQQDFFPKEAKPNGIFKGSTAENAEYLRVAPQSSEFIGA
Test: Enzymatic experiment on EGFR (HTRF kinEASE-TK)
Type: biochemical
reported endpoint: IC50 (nM)

1. Cc1cc(Nc2ncnc3ccc(NC(=O)Oc4ccccc4)cc23)ccc1Oc1cc2nncn2cn1	567
